# hERG current change (%, negative = inhibition) at 1uM annotations
Biological target: human ether-à-go-go-related gene (hERG) potassium channel (human, UniProt Q12809)
Sequence (Q12809 whole entry, looked up): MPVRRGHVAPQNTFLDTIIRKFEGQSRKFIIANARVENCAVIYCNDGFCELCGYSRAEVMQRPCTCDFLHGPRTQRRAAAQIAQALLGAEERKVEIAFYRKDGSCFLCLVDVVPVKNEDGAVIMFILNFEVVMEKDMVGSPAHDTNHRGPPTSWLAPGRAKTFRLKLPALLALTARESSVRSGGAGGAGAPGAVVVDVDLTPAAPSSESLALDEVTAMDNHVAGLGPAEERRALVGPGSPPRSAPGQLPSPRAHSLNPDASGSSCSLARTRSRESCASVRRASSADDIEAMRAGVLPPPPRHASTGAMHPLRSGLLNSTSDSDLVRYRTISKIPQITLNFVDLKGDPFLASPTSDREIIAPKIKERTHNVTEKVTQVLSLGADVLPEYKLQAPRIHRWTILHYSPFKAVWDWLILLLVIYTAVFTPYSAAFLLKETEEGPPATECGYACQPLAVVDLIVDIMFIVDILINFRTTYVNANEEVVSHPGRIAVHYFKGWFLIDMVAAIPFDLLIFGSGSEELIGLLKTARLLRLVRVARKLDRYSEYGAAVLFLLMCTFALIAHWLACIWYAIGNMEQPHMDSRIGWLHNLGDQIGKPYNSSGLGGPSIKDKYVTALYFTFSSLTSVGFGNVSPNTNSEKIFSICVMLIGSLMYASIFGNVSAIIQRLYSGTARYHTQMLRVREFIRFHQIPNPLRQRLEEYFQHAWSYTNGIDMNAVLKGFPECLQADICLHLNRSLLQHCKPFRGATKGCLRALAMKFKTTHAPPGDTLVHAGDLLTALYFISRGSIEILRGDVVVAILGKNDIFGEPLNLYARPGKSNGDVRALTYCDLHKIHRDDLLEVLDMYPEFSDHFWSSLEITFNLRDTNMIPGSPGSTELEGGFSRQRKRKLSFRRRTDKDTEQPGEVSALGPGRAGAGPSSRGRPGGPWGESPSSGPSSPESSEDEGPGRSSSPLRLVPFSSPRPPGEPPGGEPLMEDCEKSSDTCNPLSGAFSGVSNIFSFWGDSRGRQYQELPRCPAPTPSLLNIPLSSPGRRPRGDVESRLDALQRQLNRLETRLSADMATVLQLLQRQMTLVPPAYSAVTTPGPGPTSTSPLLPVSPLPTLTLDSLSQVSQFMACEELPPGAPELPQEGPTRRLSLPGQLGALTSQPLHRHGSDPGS
Assay: primary screen, population patch clamp on CHO cells stably expressing hERG; higher = less effect of the substance
Hit rate of the full screen: of about 310,000 compounds, about 2,200 (0.71%) showed an effect of 50% or more. Effects have a minus sign here. The full list was thinned out, with strong results kept by preference.
Give the value in % but do not write % after it.

Example entries begin here.
>  <compound>
COc1ccc(C(=O)NC2CCCc3ccccc32)cc1OC1CCN(C(C)=O)CC1 (centres unmarked)

>  <number>
3.31

$$$$
>  <compound>
O=C(NC1CCCN(Cc2ccc(Cl)cc2)C1)c1cccc(F)c1 (centres unmarked)

>  <number>
-18.6

$$$$
>  <compound>
Cc1occc1C(=O)NC1CCCN(Cc2ccc(CC(C)C)cc2)C1 (centres unmarked)

>  <number>
6.64

$$$$
>  <compound>
CC(C)Cc1ccc(CN2CCCC(NC(=O)c3ccoc3)C2)cc1 (centres unmarked)

>  <number>
-7.26

$$$$

input: Using known records, supply hERG current change (%, negative = inhibition) at 1uM for O=C(NC1CCCN(Cc2ccc(Cl)cc2)C1)c1c(F)ccc(F)c1F (centres unmarked)
output: -55.4

====

Molecular target: human ether-à-go-go-related gene (hERG) potassium channel (human, UniProt Q12809)
Assay: primary screen, population patch clamp on CHO cells stably expressing hERG; higher = less effect of the substance
The campaign covered roughly 310,000 compounds. About 2,200 (0.71%) showed an effect of 50% or more. Effects have a minus sign here. The entries come from a sample that favours strong results as a whole.
measure: hERG current change (%, negative = inhibition) at 1uM (%)
Give the value in % but do not write % after it.

>  <compound>
O=C(Cc1csc(-c2ccccc2)n1)NCc1ccc(F)cc1

>  <number>
4.14

$$$$
>  <compound>
Cl.OC(COc1ccc(Cl)cc1)CN1CCCCC1 (centres unmarked)

>  <number>
-29.8

$$$$
>  <compound>
COc1cc(-c2nc3n(n2)C(c2ccncc2)C2=C(CCCC2=O)N3)cc(OC)c1OC (centres unmarked)

>  <number>
26

$$$$
>  <compound>
Cn1c(SCC(=O)NC2CCS(=O)(=O)C2)nnc1-c1ccco1 (centres unmarked)

>  <number>
10.3

$$$$

We now examine a further compound.
input: Using known records, supply hERG current change (%, negative = inhibition) at 1uM for COc1ccc(CCNC(=O)CSc2nc3c(c(=O)n(C)c(=O)n3C)n2C(C)C)cc1OC
output: -14.5

====

Biological target: human ether-à-go-go-related gene (hERG) potassium channel (human)
Assay: primary screen, population patch clamp on CHO cells stably expressing hERG; higher = less effect of the substance
In all, about 310,000 compounds went through this assay and about 2,200 (0.71%) showed an effect of 50% or more. Effects have a minus sign here. What follows is part of a selection rich in strong results, with near analogues and random picks from the rest.
# hERG current change (%, negative = inhibition) at 1uM annotations
Express your answer as a number followed by its unit.

Example entries begin here.
>  <molecule>
COc1ccc(Cc2nc3c4c(ncn3n2)Oc2ccc3ccccc3c2C4c2ccc(OC)c(OC)c2)cc1 (stereo not drawn)

>  <result>
5.71%

$$$$
>  <molecule>
Cn1c(-c2cccc([N+](=O)[O-])c2)cnc1NCc1ccc(C#N)cc1.O=C(O)C(=O)O

>  <result>
-56.4%

$$$$
>  <molecule>
CCOC(=O)C1CCN(S(=O)(=O)c2cc(F)ccc2OC)CC1

>  <result>
8.83%

$$$$

input: Using known records, supply hERG current change (%, negative = inhibition) at 1uM for Cc1ccc(C)c(N2CCN(C(=O)c3ccc(Cn4c(=O)[nH]c5ccccc5c4=O)cc3)CC2)c1
output: 11.6%

input: Using known records, supply hERG current change (%, negative = inhibition) at 1uM for Cn1c(-c2ccc(Br)cc2)cnc1NCc1ccc(C#N)cc1.O=C(O)C(=O)O
output: -77.2%

====

Target: human ether-à-go-go-related gene (hERG) potassium channel (human)
Test: primary screen, population patch clamp on CHO cells stably expressing hERG; higher = less effect of the substance
Out of some 310,000 compounds screened, about 2,200 (0.71%) showed an effect of 50% or more. The effect is printed as a negative number. Shown is part of a subset that was picked to be rich in strong results.
measure: hERG current change (%, negative = inhibition) at 1uM

Example entries begin here.
>  <smiles-representation>
C=CCN1C(=O)NC(=O)C(CCc2ccncc2)(CCc2ccncc2)C1=O

>  <result>
-12.3%

$$$$
>  <smiles-representation>
Cc1coc2cc3oc(=O)c(CCC(=O)N4C[C@H]5C[C@@H](C4)c4cccc(=O)n4C5)c(C)c3cc12

>  <result>
-16.8%

$$$$
>  <smiles-representation>
O=C1NC(=O)C(CCc2ccncc2)(CCc2ccncc2)C(=O)N1Cc1ccccc1

>  <result>
-43.4%

$$$$

input: Using known records, supply hERG current change (%, negative = inhibition) at 1uM for CCc1ccc(N2C(=O)NC(=O)C(CCc3ccncc3)(CCc3ccncc3)C2=O)cc1
output: -41.1%

input: Using known records, supply hERG current change (%, negative = inhibition) at 1uM for Cc1coc2cc3oc(=O)c(CC(=O)N4C[C@H]5C[C@@H](C4)c4cccc(=O)n4C5)c(C)c3cc12
output: 4%

====

Target: human ether-à-go-go-related gene (hERG) potassium channel (human)
Assay: primary screen, population patch clamp on CHO cells stably expressing hERG; higher = less effect of the substance
In all, about 310,000 compounds went through this assay and about 2,200 (0.71%) showed an effect of 50% or more. The effect is printed as a negative number. The list comes from a sample in which strong results are over-represented; it also holds close analogues and randomly drawn compounds.
measure: hERG current change (%, negative = inhibition) at 1uM (%)
Give the value in % but do not write % after it.

Example entries begin here.
>  <compound>
Cc1ccc(/C=C2/C(=O)NC(=O)N(CCc3ccc(F)cc3)C2=O)o1

>  <measurement-units>
%

>  <number>
2.54

$$$$
>  <compound>
CC(C(=O)N1CCN(c2ccc([N+](=O)[O-])cc2)CC1)N1C(=O)C2CC=CCC2C1=O (stereo not drawn)

>  <measurement-units>
%

>  <number>
-50.2

$$$$
>  <compound>
CC(C(=O)N1CCN(c2ccccc2)CC1)c1ccc([N+](=O)[O-])cc1 (stereo not drawn)

>  <measurement-units>
%

>  <number>
-12.2

$$$$
>  <compound>
COc1ccc(N2CCC(CNC(=S)Nc3cccc(OC)c3)C2)cc1 (stereo not drawn)

>  <measurement-units>
%

>  <number>
8.46

$$$$
>  <compound>
CC(=O)Nc1ccc(N/C=C(\C#N)S(=O)(=O)c2ccc(Cl)cc2)cc1

>  <measurement-units>
%

>  <number>
11.1

$$$$

input: Given CC(C(=O)N1CCN(c2ccccc2)CC1)N1C(=O)C2CC=CCC2C1=O (stereo not drawn) , report its hERG current change (%, negative = inhibition) at 1uM on human ether-à-go-go-related gene (hERG) potassium channel (human).
output: 10.3

input: Given CC1(C)NC(=O)N(CC(=O)N2CCN(c3ccc([N+](=O)[O-])cc3)CC2)C1=O , report its hERG current change (%, negative = inhibition) at 1uM on human ether-à-go-go-related gene (hERG) potassium channel (human).
output: -29.1

input: Given Cn1cnnc1SCC(=O)NCc1cccc(C(F)(F)F)c1 , report its hERG current change (%, negative = inhibition) at 1uM on human ether-à-go-go-related gene (hERG) potassium channel (human).
output: 24.1

input: Given O=C(CN1C(=O)C2CC=CCC2C1=O)N1CCN(c2ccc([N+](=O)[O-])cc2)CC1 (stereo not drawn) , report its hERG current change (%, negative = inhibition) at 1uM on human ether-à-go-go-related gene (hERG) potassium channel (human).
output: -64.2

====

Biological target: human ether-à-go-go-related gene (hERG) potassium channel (human, UniProt Q12809)
Assay: primary screen, population patch clamp on CHO cells stably expressing hERG; higher = less effect of the substance
About 2,200 (0.71%) of roughly 310,000 compounds showed an effect of 50% or more. The effect is printed as a negative number. Many of the other results were omitted from the sample, so strong results are more common in it than they were.
# hERG current change (%, negative = inhibition) at 1uM annotations
Give the value in % but do not write % after it.

input: Using known records, supply hERG current change (%, negative = inhibition) at 1uM for CCCCN(C(=O)/C=C/c1ccco1)c1c(N)n(Cc2ccccc2)c(=O)[nH]c1=O
output: 7.19

input: Using known records, supply hERG current change (%, negative = inhibition) at 1uM for COc1cc(NC(=O)c2cc([N+](=O)[O-])ccc2NC(=O)CNC2CCCCC2C)cc(OC)c1 (centres unmarked)
output: 17.4

input: Using known records, supply hERG current change (%, negative = inhibition) at 1uM for CCCOc1cccc(C(=O)NCCNC(=O)c2ccco2)c1
output: 18.6

input: Using known records, supply hERG current change (%, negative = inhibition) at 1uM for CCc1nc2c(nnn2Cc2ccc(F)cc2)c(=O)[nH]1
output: 1.79

input: Using known records, supply hERG current change (%, negative = inhibition) at 1uM for Cc1cccc2cc(CN(Cc3cccs3)Cc3nnnn3Cc3ccccc3)c(=O)[nH]c12
output: -3.15
